organism: Sus scrofa; assay: Inhibition of porcine brain tubulin polymerization at 10 uM in presence of GTP by spectrophotometric method relative to control
Could you label it Criterion met if measured inhibition is 30% or higher, and Criterion not met otherwise?

- Structure Smiles: "COc1cc(-c2nnc(SCC(=O)c3ccccc3)n2-c2ccc(N(C)C)cc2)cc(OC)c1OC"
  Qualitative Label: "Criterion not met"
- Structure Smiles: "COc1ccc(-n2c(SCC(=O)c3ccc(F)cc3)nnc2-c2cc(OC)c(OC)c(OC)c2)cc1"
  Qualitative Label: "Criterion not met"
- Structure Smiles: "COc1ccc(CSc2nnc(-c3cc(OC)c(OC)c(OC)c3)n2-c2ccc(OC)cc2)cc1"
  Qualitative Label: "Criterion not met"
- Structure Smiles: "COc1ccc(NC(=O)CSc2nnc(-c3cc(OC)c(OC)c(OC)c3)n2-c2ccc(OC)cc2)cc1"
  Qualitative Label: "Criterion not met"
- Structure Smiles: "COc1ccc(C(=O)CSc2nnc(-c3cc(OC)c(OC)c(OC)c3)n2-c2ccc(N(C)C)cc2)cc1"
  Qualitative Label: "Criterion met"
- Structure Smiles: "COc1cc(-c2nnc(SCc3ccc(C)cc3)n2-c2ccc(N(C)C)cc2)cc(OC)c1OC"
  Qualitative Label: "Criterion not met"
- Structure Smiles: "COc1ccc(-n2c(SCC(=O)Nc3ccc(Cl)cc3)nnc2-c2cc(OC)c(OC)c(OC)c2)cc1"
  Qualitative Label: "Criterion met"
- Structure Smiles: "COc1ccc(CSc2nnc(-c3cc(OC)c(OC)c(OC)c3)n2-c2ccc(N(C)C)cc2)cc1"
  Qualitative Label: "Criterion met"
- Structure Smiles: "COc1cc(-c2nnc(SCC(=O)Nc3ccc(Cl)cc3)n2-c2ccc(N(C)C)cc2)cc(OC)c1OC"
  Qualitative Label: "Criterion not met"
